Listing of entries alongside the reported growth inhibition.
Assay: Restrictive medium S. cerevisiae growth inhibition, OD615, pilot screen of yeast lifespan reduction project, restrictive growth control (AID 706);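 note: modified DeaD lifespan yeast strain shifted to restrictive glucose medium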
Conditions: OD615, 48 h, at 10 µM, hits give high values
MEASURE: growth inhibition (%)

>>> readout_value("Cc1ccc2oc(=O)c3cnn(CC(=O)NCCCOC(C)C)c3c2c1")
-7.34
>>> readout_value("CC(=O)c1ccc(OCC(O)CN2CCC(C)CC2)cc1 (stereo unspecified)")
9.25
>>> readout_value("CCOC(=O)c1c(CN2CCCCC2)n(C)c2ccc(OC)c(S(=O)(=O)c3ccccc3)c12")
-19.7
>>> readout_value("CC1CCCCN1c1nnc(NC(=O)Cn2c(=O)oc3ccccc32)s1 (stereo unspecified)")
-14.8
>>> readout_value("Clc1ccc(-n2ncc3c(NCC4CCCO4)ncnc32)cc1 (stereo unspecified)")
-19.4
>>> readout_value("COc1cccc(C2CC(c3ccc(Cl)cc3)n3nc(N)nc3N2)c1 (stereo unspecified)")
1.46
>>> readout_value("O=C(Cn1nnc(-c2ccccc2NC(=O)c2ccccc2F)n1)NCc1ccco1")
-7.09
>>> readout_value("CCN(CC)c1ccc(/C=N/n2c(C)cc(C)cc2=O)cc1")
7.67
>>> readout_value("Cc1cc(S(=O)(=O)N2CCN(c3ccc(F)cc3)CC2)c(C)s1")
-7.43
>>> readout_value("CCOCCn1c(CN(Cc2ccccc2)Cc2ccccc2)nc2c1c(=O)n(C)c(=O)n2C")
12.6
>>> readout_value("C=CCNC(=O)c1ccc(C)cc1Cl")
-2.44
>>> readout_value("Brc1ccc(CSc2ncn[nH]2)cc1")
12.1
>>> readout_value("CN1c2ccccc2-c2nc3ccccc3n2C1c1ccccn1 (stereo unspecified)")
-3.9
>>> readout_value("CCO/C=N/c1c(C#N)c(CC#N)nn1-c1ccccc1")
2.31
>>> readout_value("CNC(=O)c1ccsc1NC(=O)c1ccc(Cl)s1")
14.4
>>> readout_value("Cc1cc(C)c(S(=O)(=O)NCC2CCC(C(=O)NCCCN3CCOCC3)CC2)c(C)c1 (stereo unspecified)")
7.86
>>> readout_value("CP(=O)(COC(=O)c1ccccc1)COC(=O)c1ccccc1")
-19
>>> readout_value("CCCCCn1c(=O)[nH]c2cc(C(=O)NCCCN(CC)CC)ccc2c1=O")
-0.04
>>> readout_value("COc1ccc(CCNC(=O)c2ccco2)cc1")
8.97
>>> readout_value("COc1ccc(CNC(=O)c2cc3c(C)nc4ccccc4c3o2)c(OC)c1")
-12.2
>>> readout_value("CCCSc1n[nH]c(NC(C)=O)n1")
7.95
>>> readout_value("FC(F)(F)c1nnc2ccc(-n3ccnc3)nn12")
-28.6
>>> readout_value("O=C(NC1CCCCCC1)C1CCN(S(=O)(=O)c2cccc3cccnc23)CC1")
6.42
>>> readout_value("CCN1CCN(Cc2nc3c(c(=O)n(C)c(=O)n3C)n2CCCc2ccccc2)CC1")
-8.71
>>> readout_value("Cc1cc(NS(=O)(=O)c2ccc(NC(=O)c3cnc4scc(C)n4c3=O)cc2)nc(C)n1")
-14.3
>>> readout_value("Cc1ccc(S(=O)(=O)c2nc(-c3cccs3)oc2SCC(N)=O)cc1")
10.4
>>> readout_value("COc1ccc(S(=O)(=O)N2CCCCC2C(=O)O)cc1OC (stereo unspecified)")
-10.8
>>> readout_value("O=C(C1=C(O)C(=O)N(c2ncccn2)C1c1cccs1)c1ccco1 (stereo unspecified)")
7.12
>>> readout_value("CCc1noc2c1/C(=N\\O)CC(c1ccccc1)C2 (stereo unspecified)")
4.22
>>> readout_value("CCOC(=O)Cc1nnc(NC(=O)CSc2nncn2C)s1")
7.44
>>> readout_value("CC(=O)/C(C(=N)N1CCN(C(c2ccccc2)c2ccccc2)CC1)=C(\\C)O")
-7.72
>>> readout_value("CCC(=O)c1cc2c(cc1NC(=O)c1cccs1)OCCO2")
-7.54
>>> readout_value("CCOC(=O)N1CCN(Cc2nc3c(c(=O)n(C)c(=O)n3C)n2CCC(C)C)CC1")
-10.9
>>> readout_value("Cc1cc2ccccc2n1CCNC(=O)COc1ccccc1")
11.8
>>> readout_value("CCOC(=O)N1CCN(C(=O)c2ccc3c(c2)N(CC)CCS3)CC1")
2.25
>>> readout_value("Cc1noc(C)c1C(=O)NCCCc1ccccc1")
-7.88
>>> readout_value("COCC(=O)NC(C)c1nc2ccccc2[nH]1 (stereo unspecified)")
-2.47
>>> readout_value("CC(=O)N1CCC(C(=O)Nc2ccccc2)(N(Cc2ccccc2)C(=O)c2cccnc2)CC1")
4.33
>>> readout_value("O=C(C1=C(O)C(=O)N(CCc2ccccc2)C1c1cccnc1)c1ccco1 (stereo unspecified)")
-2.02
>>> readout_value("CCc1cc2c(=O)c(-c3nc4ccccc4n3C)c(C(C)C)oc2c(CN2CCN(C)CC2)c1O")
8.45
>>> readout_value("COc1ccc(N2C(=O)CCC(C(=O)N3CCCCCC3)C2c2ccc(OC)c(OC)c2)cc1 (stereo unspecified)")
12.9
>>> readout_value("O=C(Cn1nc(Cc2cccnc2)c2ccccc2c1=O)N1CCN(C(=O)c2ccco2)CC1")
0.805
>>> readout_value("Cc1nc2ccccc2c2oc(C(=O)NCCCN3CCC(C)CC3)cc12")
17.8
>>> readout_value("CC(C)(C)c1ccc(-c2nnc3sc(-c4ccccn4)nn23)cc1")
-24.6
>>> readout_value("Cc1cc2nc3c(c(=O)n2[nH]1)CCCC3")
0.415
>>> readout_value("COc1ccc(NC2=NCC(=O)N2c2ccccc2)c(OC)c1")
-5.42
